Molecular target: full-length NS3/NS4A-2 (HCV NS3 protease) (Hepatitis C virus genotype 1a)
Construct: Recombinant E. coli or Baculovirus full-length NS3 was diluted to 3.33 μM with assay buffer; made in house; host or cells: E. coli or baculovirus (BV) expression system
Assay: NS3-NS4 protease assay / NS3 inhibition assay (RETS1 substrate, fluorescence kinetic read)
Type: biochemical
Settings: recombinant E. coli or Baculovirus full-length NS3 with NS4A-2; read-out: NS3-NS4 IC50
Parameter Measured: IC50

# return recorded IC50 for entry "O=C(CCC(F)(F)F)N[C@H]1CCCCC/C=C\[C@@H]2C[C@@]2(C(=O)O)NC(=O)[C@@H]2C[C@@H](OC(=O)N3Cc4cccc(Cl)c4C3)CN2C1=O" < 100 nM

# return recorded IC50 for entry "COCC1(S(=O)(=O)NC(=O)[C@@]23C[C@H]2/C=C\CCCCC[C@H](NC(=O)OC(C)(C)C)C(=O)N2C[C@H](OC(=O)N4Cc5ccccc5C4)C[C@H]2C(=O)N3)CC1" < 100 nM

# return recorded IC50 for entry "O=C1N[C@]2(C(=O)NS(=O)(=O)C3CC3)C[C@H]2/C=C\CCCCC[C@H](NCC2CC2)C(=O)N2C[C@H](OC(=O)N3Cc4cccc(F)c4C3)C[C@@H]12" < 100 nM

# return recorded IC50 for entry "O=C1N[C@]2(C(=O)NS(=O)(=O)C3CC3)C[C@H]2/C=C\CCCCC[C@H](NC(=S)N2CCCC2)C(=O)N2C[C@H](OC(=O)N3Cc4cccc(F)c4C3)C[C@@H]12" < 100 nM

# return recorded IC50 for entry "CC(C)(C)OC(=O)N[C@H]1CCCCC/C=C\[C@@H]2C[C@@]2(C(=O)NS(=O)(=O)C(C)(C)C)NC(=O)[C@@H]2CCCN2C1=O" > 10000 nM

# return recorded IC50 for entry "CC(C)(C)OC(=O)N[C@H]1CCCCC/C=C\[C@@H]2C[C@@]2(C(=O)Nc2n[nH]cc2C2CC2)NC(=O)[C@@H]2C[C@@H](OC(=O)N3Cc4cccc(F)c4C3)CN2C1=O" < 1000 nM

# return recorded IC50 for entry "CN(C)C(=S)NC(=O)[C@@]12C[C@H]1/C=C\CCCCC[C@H](NC(=O)OC(C)(C)C)C(=O)N1C[C@H](OC(=O)N3Cc4cccc(F)c4C3)C[C@H]1C(=O)N2" < 100 nM

# return recorded IC50 for entry "CC(C)(C)OC(=O)N[C@H]1CCCC(F)(F)C/C=C\[C@@H]2C[C@@]2(C(=O)O)NC(=O)[C@@H]2C[C@@H](OC(=O)N3Cc4cccc(F)c4C3)CN2C1=O" < 100 nM

# return recorded IC50 for entry "O=C1N[C@]2(C(=O)NS(=O)(=O)C3CC3)C[C@H]2/C=C\CCCCC[C@H](NC(=O)C2(O)CC2)C(=O)N2C[C@H](OC(=O)N3Cc4cccc(F)c4C3)C[C@@H]12" < 100 nM

# return recorded IC50 for entry "CC(C)(C)OC(=O)N[C@H]1CCCCC/C=C\[C@@H]2C[C@@]2(C(=O)NCC2CC2)NC(=O)[C@@H]2C[C@@H](OC(=O)N3Cc4cccc(F)c4C3)CN2C1=O" < 1000 nM

----------
Molecular target: full-length NS3/NS4A-2 (HCV NS3 protease) (Hepatitis C virus genotype 1a, UniProt P27958)
Construct: Recombinant E. coli or Baculovirus full-length NS3 was diluted to 3.33 μM with assay buffer; made in house; host or cells: E. coli or baculovirus (BV) expression system
Sequence (P27958 1027-1657): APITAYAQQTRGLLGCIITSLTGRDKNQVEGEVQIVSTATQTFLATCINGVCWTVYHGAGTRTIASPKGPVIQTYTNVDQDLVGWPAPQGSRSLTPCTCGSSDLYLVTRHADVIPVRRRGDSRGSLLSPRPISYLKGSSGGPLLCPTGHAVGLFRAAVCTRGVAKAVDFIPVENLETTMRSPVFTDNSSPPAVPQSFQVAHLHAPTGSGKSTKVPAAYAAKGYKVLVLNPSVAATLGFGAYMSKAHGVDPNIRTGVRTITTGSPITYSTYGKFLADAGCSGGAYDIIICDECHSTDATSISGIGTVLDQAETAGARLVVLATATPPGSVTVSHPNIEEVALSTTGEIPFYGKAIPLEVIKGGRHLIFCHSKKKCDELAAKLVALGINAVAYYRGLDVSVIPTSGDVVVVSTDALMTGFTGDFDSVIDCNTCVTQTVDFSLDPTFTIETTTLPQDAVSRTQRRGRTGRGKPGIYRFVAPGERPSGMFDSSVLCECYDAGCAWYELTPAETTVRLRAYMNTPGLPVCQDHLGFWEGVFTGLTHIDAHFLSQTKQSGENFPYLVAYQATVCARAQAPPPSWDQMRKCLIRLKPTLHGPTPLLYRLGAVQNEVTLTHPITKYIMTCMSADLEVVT
Assay: NS3-NS4 protease assay / NS3 inhibition assay (RETS1 substrate, fluorescence kinetic read)
Type: biochemical
Details: recombinant E. coli or Baculovirus full-length NS3 with NS4A-2; read-out: NS3-NS4 IC50
Parameter Measured: IC50

# return recorded IC50 for entry "CC(C)(C)OC(=O)N[C@H]1CCCCC/C=C\[C@@H]2C[C@@]2(C(=O)N[S@+]([O-])C(C)(C)C)NC(=O)[C@@H]2CCCN2C1=O" < 1000 nM

# return recorded IC50 for entry "CC(C)(C)OC(=O)N[C@H]1CCCCC/C=C\[C@@H]2C[C@@]2(C(N)=O)NC(=O)[C@@H]2C[C@@H](OC(=O)N3Cc4cccc(F)c4C3)CN2C1=O" < 1000 nM

# return recorded IC50 for entry "CN1CCC(N(C2CC2)S(=O)(=O)NC(=O)[C@@]23C[C@H]2/C=C\CCCCC[C@H](NC(=O)OC(C)(C)C)C(=O)N2CCC[C@H]2C(=O)N3)CC1" < 1000 nM
